Just for reference, ChEMBL document CHEMBL3638918 is where these values come from.

target: Trace amine-associated receptor 1 (Rattus norvegicus, UniProt Q923Y9); assay: Nonspecific binding was defined as the amount of 3-[H]-(S)-4-[(ethyl-phenyl-amino)-methyl]-4,5-dihydro-oxazol-2-ylamine bound in the presence of 10 uM unlabeled ligand. All compounds were tested at a broad range of concentrations (10 pM to 10 uM) in duplicates. The test compounds (20 ul/well) were transferred into a 96 deep well plate (TreffLab), and 180 ul of HEPES-NaOH (20 mM, pH 7.4) containing MgCl2 (10 mM) and CaCl2 (2 mM) (binding buffer), 300 ul of the radioligand 3[H](S)-4-[(ethyl-phenyl-amino)-methyl]-4,5-dihydro-oxazol-2-ylamine at a concentration of 3.3Kd in nM.; assay type: cell membranes
Sequence (Q923Y9 whole entry): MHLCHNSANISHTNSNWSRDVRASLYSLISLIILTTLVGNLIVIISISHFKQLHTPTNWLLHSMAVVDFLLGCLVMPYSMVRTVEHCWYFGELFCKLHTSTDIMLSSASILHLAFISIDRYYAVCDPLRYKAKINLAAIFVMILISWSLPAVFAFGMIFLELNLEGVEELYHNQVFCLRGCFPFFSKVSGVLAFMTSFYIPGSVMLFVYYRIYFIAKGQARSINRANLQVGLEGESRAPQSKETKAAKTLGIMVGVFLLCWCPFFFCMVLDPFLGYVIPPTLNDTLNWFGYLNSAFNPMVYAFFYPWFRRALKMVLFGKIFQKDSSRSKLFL
pKi: −log10 of the molar value.
ASSAY READOUT: pKi

>  <ENTRY SMILES>
COc1cccc(-c2cc(C(=O)Nc3ccc([C@H]4CNCCO4)cc3)n(C)n2)c1

>  <ASSAY READOUT>
pKi

>  <RECORDED MEASUREMENT>
8.06

$$$$
